test system: KB; experiment: Antiproliferative activity against human KB cells; format: functional, cell-based
ASSAY_ENDPOINT: IC50 (nM)
Output spec: scalar in nM, unitless text.

Give recorded IC50. `C[C@H]1O[C@@H](O[C@H]2CC[C@]3(C=O)[C@H]4[C@H](O)C[C@]5(C)[C@@H](C6=CC(=O)OC6)CC[C@]5(O)[C@@H]4CC[C@]3(O)C2)[C@H](O)[C@H](O)[C@H]1O`
74
